Just for reference, ChEMBL document CHEMBL1201862 is where these values come from.

Measured GI50 by item
# Test system: HOP-92
# protocol_details: NCI tumour cell line growth inhibition, 48 h
The source made the active and inactive calls. Rule as the data show it: active = GI50 up to about 1.1 µM and inactive = higher.

compound	GI50
CSc1ncc2c(n1)sc1c(=O)n(-c3ccccc3)cnc12	> 100 µM (inactive)
C=CC[C@@H](N)C(=O)N(C)[C@@H](C)[C@@H](O)c1ccccc1	54.6 µM (inactive)
COc1ccc(C2Oc3c(c(O)cc4c3[C@H](c3ccc(O)cc3O)[C@H](O)C(c3ccc(O)c(O)c3)O4)C[C@@H]2O)cc1O (stereo partly specified)	> 100 µM (inactive)
O=c1nc(/C=C/c2ccccc2Cl)cc2n1CCN2CCO	> 100 µM (inactive)
Cc1ccc2c(c1)C(=O)/C(=C\c1ccccc1)CCS2(=O)=O	12.9 µM (inactive)
C=C1C[C@@H]2C[C@@H](C)CC(O)[C@]2(CCCN)C1O (stereo partly specified)	> 100 µM (inactive)
O=C(O)C(C1NCCS1)N1C(=O)c2ccccc2C1=O (stereo unspecified)	> 100 µM (inactive)
Brc1ccc2ns[s+]c2c1	6.73 µM (inactive)
CCCCCCC(=O)c1ccc2ccccc2c1O	93.3 µM (inactive)
CC(C)=CCC/C(C)=C/CCC1(C)C=Cc2c(c3ccccc3oc2=O)O1 (stereo unspecified)	12.2 µM (inactive)
Cn1c(C(C#N)c2nc(Cl)ncc2Br)nc2ccccc21 (stereo unspecified)	> 100 µM (inactive)

* * *

# Test system: NCI-H522
# protocol_details: NCI tumour cell line growth inhibition, 48 h
Active and inactive are the calls of the source. No stated cut-off is given here; in the data, active = GI50 up to about 1.1 µM and inactive = higher.
Outcome codes: YES for active, NO for inactive

molecule	test_system	assigned_label
COC(=O)C1=C(C)NC(C)=C(C(=O)OCCCN2CCC(c3ccccc3)(c3ccccc3)CC2)[C@H]1c1cccc([N+](=O)[O-])c1	NCI-H522	NO
c1ccc(NN(Cc2cnccn2)c2ccccc2)cc1	NCI-H522	NO
CC1=CC(N2C(=O)C(C)=CC2O)NC1=O (configuration not stated)	NCI-H522	NO
Clc1ccc(Cc2nc3ccccc3nc2-c2cccc(Cl)c2)cc1	NCI-H522	NO
Cc1cn(C2CC(O)C(CO)C2C)c(=O)[nH]c1=O (configuration not stated)	NCI-H522	NO
N#CC(NCCO)=C1C(=O)c2ccccc2C1=O	NCI-H522	NO
CCOC(=O)/C=C(\C(=O)OCC)n1cc(C)c(=O)n(Cc2cn(CCCCOC(C)=O)nn2)c1=O	NCI-H522	NO
COc1ccc([N+](=O)[O-])c2c(NCC(O)CO)ccnc12 (configuration not stated)	NCI-H522	NO
O=C(O)CCC[C@]1(O)O[C@@]2(CCCC2=O)[C@]2(O)CCC[C@@]21O	NCI-H522	YES
CN1c2ccccc2N(C(=O)c2ccc(Cl)cc2)C(CC(=O)O)c2cccn21 (configuration not stated)	NCI-H522	NO
CC(C)Sc1nc(C#N)cc2c1CCCC2	NCI-H522	NO
C/C(=C\COP(=O)(O)OP(=O)(O)O)CC/C=C(\C)CNc1ccc([N+](=O)[O-])cc1	NCI-H522	NO
CCCCCCCCCCCCCCCCCCNc1nc(=O)n(C2CC(OP(=O)(O)OCC3OC(n4cc(F)c(=O)[nH]c4=O)CC3O)C(CO)O2)cc1F (configuration not stated)	NCI-H522	NO
O=[N+]([O-])c1cc2oc(COc3ccccc3)nc2cc1Cl	NCI-H522	NO
N#Cc1cc([N+](=O)[O-])ccc1NC(=O)C(F)(F)F	NCI-H522	NO
Cc1cc(C)n(-c2c(O)ccc(O)c2-n2nc(C)cc2C)n1	NCI-H522	NO
Cc1cc(Nc2ccc(NS(C)(=O)=O)cc2)c2c(ccc3[nH]ccc32)n1	NCI-H522	NO
CC(=O)OC/C=C(/C=C/CNC1CCCCC1)OC(C)=O	NCI-H522	NO
CC1(C)COP(=S)(c2ccccn2)O[C@@H]1c1ccccc1 (some centres not stated)	NCI-H522	NO
Cc1ccc(S(=O)(=O)c2c(O)c3ccc(O)c(C)c3oc2=O)cc1	NCI-H522	NO
COc1cc(/C=N/N=C2NCCCCN2)ccc1O	NCI-H522	NO
CCOC(=O)C1=C(Nc2ccc(Br)cc2)OCC1=O	NCI-H522	NO
CC1=C(O)C(=O)C2=C(C1=O)[C@@H]([C@@H](C)C/C=C/C(C)(C)O)CC[C@@H]2C	NCI-H522	NO
Cc1ccc2nc(NC(=O)C(=O)C(C(=O)c3ccc4ccccc4c3)C3OC(=O)c4ccccc43)sc2c1 (configuration not stated)	NCI-H522	NO
O=C(O)c1cccc(NC(C(=O)c2ccccc2)c2ccccc2)c1 (configuration not stated)	NCI-H522	NO
O=C(Nc1cccc(O)c1)C(=O)C(C(=O)c1ccccc1F)C1OC(=O)c2ccccc21 (configuration not stated)	NCI-H522	NO
CN(C)CCCN1c2ccc(O)cc2Sc2ccc(Cl)cc21 [7-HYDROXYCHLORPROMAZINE]	NCI-H522	NO
COC(=O)C(C)(C)OCc1ccc(C2NC(=O)N(c3cccc(Cl)c3)C(=O)N2c2cccc(Cl)c2)cc1 (configuration not stated)	NCI-H522	NO
Clc1ccc(COC(Cn2ccnc2)c2ccc(Cl)cc2Cl)cc1 (configuration not stated)	NCI-H522	NO
CNc1ccc2c(c1)Cc1ccccc1-2	NCI-H522	NO
C=C(CCC(C)C1CCC2C3=C(C(=O)CC21C)C1(C)CCC(=O)[C@@H](C)C1CC3=O)C(C)C(=O)O (some centres not stated)	NCI-H522	NO
O/N=N\c1nc(-c2ccccn2)nc2ccccc12	NCI-H522	NO
C[C@@H]1CC[C@@]2(NC1)O[C@H]1C[C@H]3[C@@H]4CC[C@H]5C[C@@H](O)CC[C@]5(C)[C@H]4CC[C@]3(C)[C@H]1[C@@H]2C	NCI-H522	NO
CSc1c(C#N)c(=O)n(N)c2c1c(C)nn2-c1ccccc1	NCI-H522	NO
CN(c1ccc(Cl)cc1)S(=O)(=O)c1ccccc1	NCI-H522	NO
O=c1[nH]c2nc3ccccc3c(=O)n2/c1=C/c1ccc(Cl)cc1	NCI-H522	NO
Cc1ccc2c(O)c3c(cc2c1)C(=O)c1c2c(cc(O)c1C3=O)C1(C)OC(O2)C(O)C(N(C)C)C1O (configuration not stated)	NCI-H522	NO
COc1ccc(C2Oc3c(c(O)cc4c3[C@H](c3ccc(O)cc3O)[C@H](O)C(c3ccc(O)c(O)c3)O4)C[C@@H]2O)cc1O (some centres not stated)	NCI-H522	NO
CCOc1ccc(C(CN2CCOCC2)C(C)=O)cc1OC (configuration not stated)	NCI-H522	NO
Cc1cc(CC(=O)NCCO)n(CCO)c(=O)c1	NCI-H522	NO
CC1=C(C(=O)OCCc2ccc([N+](=O)[O-])cc2)C(c2cccc([N+](=O)[O-])c2)C(C(=O)OC(C)C)=C(C)N1 (configuration not stated)	NCI-H522	NO
CC[C@@]1(O)C(=O)OCc2c1cc1n(c2=O)Cc2cc3c(NC(=O)CN)cccc3nc2-1	NCI-H522	YES

* * *

Measured GI50 by item
# System: UACC-257
# protocol_details: NCI tumour cell line growth inhibition, 48 h
Active and inactive are the calls of the source. No stated cut-off is given here; in the data, active = GI50 up to about 1.1 µM and inactive = higher.

compound	test_system	GI50
C=CC[C@@H](N)C(=O)N(C)[C@@H](C)[C@@H](O)c1ccccc1	UACC-257	> 100 µM (inactive)
CC(=O)Nc1ccc(C(=O)N2N=C(C)/C(=C\c3c(O)ccc4ccccc34)C2=O)cc1	UACC-257	> 100 µM (inactive)
N#Cc1nc(C#N)c(N)[nH]1	UACC-257	> 100 µM (inactive)
CC(=O)CC(O)(C(F)(F)Cl)C(F)(F)Cl	UACC-257	> 10 µM (inactive)
O=C(Cl)C1=C(c2ccccc2)C1c1ccccc1 (centres undefined)	UACC-257	> 100 µM (inactive)
CSc1c(C#N)c(N)nc2c(/N=N\c3ccc(Br)cc3)c(N)nn12	UACC-257	8.05 µM (inactive)
O=c1c2cc(Br)ccc2oc2ccc(Br)cc12	UACC-257	> 100 µM (inactive)
CC(=O)/N=C1\NC(=O)/C(=C/c2ccc(/C=C3/C(=O)N/C(=N\C(C)=O)N3C)cc2)N1C	UACC-257	> 100 µM (inactive)
CC12C=CC(C)(C3C(=O)C4C(C(=O)C31)C1(C)C=CC4(C)[S+]1[O-])[S+]2[O-] (centres undefined)	UACC-257	71.9 µM (inactive)
COc1ccc(N[S+]([O-])c2ccc(OC)cc2)cc1 (centres undefined)	UACC-257	69 µM (inactive)
Nc1ccc(Sc2nnc(N)s2)cc1	UACC-257	> 100 µM (inactive)
C[C@@H]1CC[C@@]2(NC1)O[C@H]1C[C@H]3[C@@H]4CC[C@H]5C[C@@H](O)CC[C@]5(C)[C@H]4CC[C@]3(C)[C@H]1[C@@H]2C	UACC-257	> 100 µM (inactive)
COc1ccccc1-c1cc(=O)c2ccc(OC)c(OC)c2o1	UACC-257	44.9 µM (inactive)
CC(=O)C1=C(C)N2C(=NC3=C(CCc4ccccc43)C2c2ccc(Cl)cc2)S1 (centres undefined)	UACC-257	> 78.5 µM (inactive)
